test: yeast display, Sf9 membrane polyspecificity reagent, FACS + sequencing; frameworks hold sequencing errors

residue-codes | polyreactivity (PSR sort gate)
QVQLVESGGGLLQAGGSRRLSCAASGRTFYSYGMGWYRRAPGKERELVARNTWSGGTYYADSVKGRFTISRDNAKNTVYLQMNSLKPEDTAVYYCAKRSYYWEYYYWGQGTQVTVSA | high polyreactivity
QVHLVESGGGLVQAGGSLRLSCAASGSIFYYNTMGWYRQAPGKERELVAAIRFDDGSTYYADSVKGRFTISRDNAKNTVYLQMNSLKPEDTAVYYCAADWIVVSEFGLDYHMDYWGQGTQVTVSS | low polyreactivity
QVQLVESGGGLVQAGGSLRLSCAASGLTFDEYAMGWYRQPPGKERELVARITQSGGSTYYADSVKGRFTISRDNAKNTVYLQMNSLKPEDTAVYYCNAGAPARYWWEGDYWGQGTQVTVSS | high polyreactivity
QVQLVESGGGLVQAGGSLRLSCAASGFTFGWYAMGWYRPAPGKERELVAAISRSGGSTYYADSVKGRFTISRDTAKNTVYLQMNSLKPEDTAVYYCAATYPQGKYTYGRSYDYWGQGTQVTVSS | high polyreactivity
QVQLVESGGGLVQAGGSLRLSCSASGSTYYNAMGWYRQAPGKERQLVAAIRFRSGSTYYADSVKGRFTISRDNAKNTVYLQMNSLKPEDTAVYYCAADNKRSWRYAYTYWGQGTQVTVSS | high polyreactivity
QVQLVESGGGLVQAGGSLRLSCAASGRTFNRYGMGWYRQAPGKERELVASITSGGSTNYADSVKGRFTISRDNAKNSVYLQMNSLKPEDTAVYYCAKRSIGRYPRTYDYWGQGTQVTVSS | low polyreactivity
QVQLVESGGGLVQAGGSLRLTCAASGLTFPKYAMGWYRQAPGKERELVAAITQRGGSTYYADSVKGRFTISRDNAKNTVYLQMNSLKPEDTAVYYCNARRRDYNNRREFDYWGQGTQVTVSS | high polyreactivity
QVQLVESGGGLVQAGGSLRLSCAASGRIFSVYAMGWYRQAPGKEREFVAAITKGGVGTYYADSVKGRFTISRDHAKNSVYLQMNSLKPEDTAVYYFAARHYYGADRYYSWGQGTQVTVSS | high polyreactivity
QVQLVESGGGLVQAGGSLRLSCAASGFIFRTYAMAWYRQAPGKERELVAAIRQSAGRTYYADSVKGRFTISRDNAKNTVYLQMISLKPEDTAVYYCAADRSPYRRQYDYWGQGTQVTVSS | high polyreactivity
PVQLVESGGGLVQAGGSLRLSCAGSGFTFYTNTMGWYIQAPGKERELVAAISSGGSTYADSVKVRYTISRDNAKNTVDLQMNSLKPEDTAVYYCARDFYYSLSGFDYWGQGTQVTVSS | low polyreactivity
QVQLVESGGGLVQAGGSLRLSCAACGRTFWSYAMGWYLQAPGKERELVAAINSGGSTDYADSVKGRFTISRDNAKNTVYLQMNSLKPEDTAVYYCAADTWYGFDWGQGTQVTVSS | high polyreactivity
QVQLVESGGGLVQAGGSLRLSCAASGSILYGNDMGWYRQAPGKERELVANITSSDSTYYADSVKGRFTISRDNAKNTVYLQMNSLKPEDTAVYYCASDDVGWGYYVYSYPYDYWGQGTQVNVSS | low polyreactivity
QVQLVESGGGLVQAGGSLRISCAASGSIYSAYVMGWYRQAPGKERELVSAITRSGGSTYYADSVKGRFTISRDNAKNTVYFQMNSLKPEDTAVYYCAVDYLLHYYSYIEDYWGQGTQVTVSS | low polyreactivity
QVQLVESGGGLVQAGGSLRLSCAASGRNFSYYVMGWYRPAHGKERELVAAITSGGSTNYAHSVKGRFTISRDNAKNTVYLQMNSLKPEDTAVYYCNRAYTYINRLYGYWGQGTQVTVST | high polyreactivity
QVQHVESGGGLVQAGGSLRLSCAASGIILGSYAMGWYRQAPGKEMELVAAIRWSRGRTYYADSVKGRFTISRDNAKNTVYLQMNSLKPEDSAVYYCAAANSRRGYDYWGQGTQVTVSS | high polyreactivity
QVQLVESGGGLVQAGGSLRLSCAAYGSIIGVNAMGWYRPAPGKERELVAAISSTGGSTYYADSVKGRFTISRDNAKNTVYLQMNSLKPEDTAVYYCNTDYSKSIGDGYAGFDYWGQGTQVTVSS | low polyreactivity
QVQLVESGGGVVQAGGSLRLSCAASGIIFYRYAMGWYRQAPGKERELVARITNGGNTYYADSVKGRFTISRDNAKNTVYLQMNSLKPEDTAVYYCAVRVFGYSPYSNWMYYWGQGTQVTVSS | high polyreactivity
QVQLVESGGGLVQAGGSLRLSCAASGRIFWPYAMGWYRQAPGKERELVAAISSSGGSTYYADSVKGRFTISRDNAKNTVYLQRNSLKPEDTAVYYCNAYSGLSYRYGYSYWGQGTQVTVSS | high polyreactivity
QVQLVESGGGLVQAGGSLRLSCAASGSIFNGYTMGWYRQAPRKERELVAAISSRGGITYYADSVKGRFTISRDNAKNTVYLQMNSLKPEDTAVYYCAKTSGYYQAGSLKYGYWGQGTQVTVSS | high polyreactivity
QVQLVESGGGLVQAGGSLRLSCAASGRIFYSNAMGWYRQAPGKERELVAAISSSGGSTYYADSVKGRFTISRDNAKNTVDLQMNSLKPEDTAVYYCNAVHARYRSQGDYWGQGTQVTVSS | low polyreactivity
QVQLVESGGGLVQAGGSLRLSCAASGSIFQRNAMGWYRQAPGKERELVAAISRSGGRTYYADSVKGRFTISRDNAKNTVYLQMNSLKPEDTAVYYCAADSPYIQNRFEYWGQGTQVTVSS | high polyreactivity

---

assay: yeast display, Sf9 membrane polyspecificity reagent, FACS + sequencing; frameworks hold sequencing errors

residue-codes | polyreactivity (PSR sort gate)
QVQLVESGGGLVQAGGSLRLSCAASGRTFWAYALGWYRQGPGKERELVAAITTSGGSTNYADSVKGRFTISRDNAKNTVYVQLHSLKPEDTAVYYCNADPTYPVVNGVGYWGQGTQVTVSS | low polyreactivity
QVQLVESGGGLVQAGGRLRLSCAASGRNFEPYAMGWYRQAPGKERELVAAISRSGGRTYYADSVKGRFTISRDNAKNTVYLQMNSLKPEDTAVYYCAAVGVYWYVYPHEYDYWGQGTQVTVSS | high polyreactivity
QVQLVQSVGGLVHAGGSLRLSCAASGRTYGVYAMGWYRQAPGKERELVAAITYSGGSTYYADSVKGRFTISRDNAKNTVYLQMNSLKPEDTAVYYCAAETRVGLYYVREVYYWGQGTQVTVSS | low polyreactivity
QVQLVESGGGLVQAGGSLRLSCAASGYTFSVNALGWYRQAPGKERELVATINSSGGGTYYADSVKGRFTISRDNAKYTVYLQMNSLKPEDTAVFYCAADGYWYGDIYPSDYRWYDYWGQGTQVTVSS | low polyreactivity
QVQLVESGGGLVQAGGSLRLSCAASGSIFIRNAMGWYRQAPGKERELVAAITSGGNTYYADSVKGRFTISRDNAKNTVYLQMNSLKPEDTAVYYCNAGRYYRHDYWGQGTQVTVSS | low polyreactivity
QVQHLETGGGLDQAGGSLRLSCAASVRTFGANAMAWYRQAPGNERALVAAITGRGGSTYYADSVKGRFTFSRDNAKNTVYLQMNSLKPEDTAVYYCAKPFKRGYGYDYWGQGTQVTVSS | low polyreactivity
QVQLVESGGGLVQAGGSLRLNCAASGGIFAYNAMGWYRQAPGKEMELVAAITYGGGSTYYADSVKGRFTISRDNAKNTVYLQMNSLKPEDTAVYYCATRGHYHAFYYTYPRYDSWGQGTQVTVSS | low polyreactivity
QVQLVESGGGLVQAGGSLRLSCAASGRIFVGNTMGWYRQAPGKERELVAAITYRGGSTYYADSVKGRFTISRDNAKNTVYLQMNSLKPEDTAVYYCATAGYWGGDYWGQGTQVNVSS | low polyreactivity
QVQLVESGGGLVQAGGSLRLSCAASGLIFRVYAMGWYRQAPGKERELVAAITWSDGSTYYADSVKGRFTISRDNAKNTVYLQMNSLKPEDTAVYYCATAYFRVYHSRYYYWGQGTQVTVSS | high polyreactivity
QVQLVESGGGLVQAGGSLRLSCAASGYVMGWYRQAPGKEREMVAAITRGTSTYYADSVKGRFTISRDNAKNTVYLQLNSLKPEDTAVYFCADRHNTGSSRHYGYWGQGTQVTVSS | low polyreactivity
QVQLVESGGGLVQAGGSLRLSCAASGRILYKYAMGWYRQAPGKERELVAAISRRGGSTFYADSVKGRFTISRDNAKNTVYLQMNSLKPEDTAVYYCAAGSTRYAGWTYNYWGQGTQVTVSS | high polyreactivity

---

test: yeast display, Sf9 membrane polyspecificity reagent, FACS + sequencing; frameworks hold sequencing errors

residue-codes | polyreactivity (PSR sort gate)
QVQLVESGGGLVQAGGSLRLRCAASGSTFYGNTMGWNRQAPGKERELVAAITWTGGRTYYADSVKGRFTISRDNAKNTVYLQMNSLIPEDTAVYYCARGASFYQKFYYWGQGTQVTVSS | high polyreactivity
QVQLVESGGGLVQAGGSLRLSCAASGSTLYDYTMGWYRQAPGKERELVAAIRVSGARTFYADSVKGRFTISRDNAKNTVYLQMNSLKPEDTAVYYCAAEFGSFVSPYNYYYWGQGTQVTVSS | low polyreactivity
QVQLVESGGGLVQAGGSLRLSCAASGSIFIYNAMGWYRQAPGKERELVAAISSSGGSTYYADSVKGRFTISRDNAKNTVYLQMNSLKPVDTAVYYCAARTYYVRGLGGRPGMDYWGQGTQVTVSS | low polyreactivity
QVQLVESGGGLVQAGGSLRLSCAASGRTFLAIGWYRQAPGKETELVATINGSDGNTYYADSVKGRFTISRDNAENTVYLQMNILKPEDTAVYYCAKRADHTYLPLRPGYPEYNYWRQGTQVTVSS | low polyreactivity
QVQLVESGGGLVQEGGSLRLSCAASGRTLYRNAMGWYRQAPGKERELVAAISRSGGRTSYADSVKGRFTISRDNANNTVYLQMNSLIPEDTAVYYCNDVASHEFDYWGEGTQVTVSS | high polyreactivity
